This section presents compounds with their documented %Inh values.
# Tested on: PAK7;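 note: KINOMEscan kinase panel screen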
# experimental-conditions: concentration: 1 μM, replicates: in singlicate; n = 1
reported-endpoint: %Inh (%)

| molecular-string | unit-symbol | recorded-number |
| --- | --- | --- |
| Cl.Cl.c1ccc(-c2cc3ccncc3cc2OC2CCNCC2)cc1 | % | 2 |
| Cl.c1ccc(Cn2ncc3cc(Nc4ncnc5ccccc45)ccc32)cc1 | % | 6 |
| C[C@H]1CC[C@@H](C(=O)Nc2ccccc2)CN1c1cc(-c2ccc3c(N)n[nH]c3c2)nc(N)n1 | % | 0 |
| COc1ccc(NC(=O)Nc2ccc(C)c(-c3ccc(C(=O)Nc4ccncc4)cc3)c2)cc1 | % | 9 |
| Nc1nc(-c2ccc3c(N)n[nH]c3c2)cc(N2CCC[C@@H](C(=O)Nc3ccccc3)C2)n1.O=C(O)C(F)(F)F.O=C(O)C(F)(F)F | % | 6 |
| NC(=O)c1sc(-n2cnc3ccccc32)cc1OCc1ccccc1F | % | 4 |
| COC(=O)c1cccc(NC(=O)NCCNc2ccnc(Nc3ccc(F)cc3)n2)c1 | % | 0 |
| Fc1cccc(COc2ccc(Nc3ncnc4cc[nH]c34)cc2Cl)c1 | % | 22 |
| CSc1ccc(NC2=C(c3ccccc3Cl)C(=O)NC2=O)cc1 | % | 15 |
| O=C(NCCCN1CCCC1=O)c1cnc(NCc2cc(Cl)ccc2Cl)nc1NC1CCNCC1 | % | 0 |
| CCn1c(-c2ccncc2)nc2cnccc21 | % | 0 |
| COc1ccc(NC(=O)c2ccc(-c3cc(-c4nnc(C)o4)ccc3C)cc2)cc1 | % | 0 |
| CN1CCC(n2cnc(-c3ccc(F)cc3)c2-c2ccnc(NC3CCNCC3)n2)CC1 | % | 10 |
| Cl.Cn1ccc(-c2cccc(Nc3ccnc4cc(-c5nccs5)ccc34)c2)n1 | % | 100 |
| Nc1nc(-c2cccnc2)c(-c2ccnc3ccccc23)s1 | % | 0 |
